Listing: log10 TGI of selected compounds
# Test system: HT29 colon
# ASSAY METHOD TEXT: NCI tumour cell line growth inhibition, 48 h
TEST READOUT: log10 TGI (log10 of the value in µM)

>  <COMPOUND>
CC1=C(C(=O)Nc2ccc(F)c(Cl)c2)C(c2ccc(Cl)cc2)NC(=O)N1 (centres undefined)

>  <log10 TGI>
1.44

$$$$
>  <COMPOUND>
C/C(=C\CO)CC/C=C(\C)CNc1c(F)c(F)c(F)c(F)c1F

>  <log10 TGI>
1.72

$$$$
>  <COMPOUND>
O=C1/C(=C/c2ccc([N+](=O)[O-])cc2)COc2ccc(O)c(O)c21

>  <log10 TGI>
0.77

$$$$
>  <COMPOUND>
COc1cc2nc(-c3ccc(C(F)(F)F)cc3)cc(OCCCN3CCC(O)CC3)c2cc1OC

>  <log10 TGI>
1.02

$$$$
>  <COMPOUND>
CCCN(CCC)CCc1ccc(OC2=CCN(C)CC2)cc1

>  <log10 TGI>
1.67

$$$$
>  <COMPOUND>
Cc1nnc2n1N=C(c1ccccc1)/C(=C/c1ccc(-c3ccc(Cl)cc3)o1)S2

>  <log10 TGI>
1.65

$$$$
>  <COMPOUND>
CC(=O)Oc1c(C)c2c(c3ncccc13)OC(C)C2 (centres undefined)

>  <log10 TGI>
1.57

$$$$
>  <COMPOUND>
O=C1C2=C(SCCS2)C(=O)c2ccccc21

>  <log10 TGI>
0.65

$$$$

----------
# Tested on: SF-268 CNS
# ASSAY METHOD TEXT: NCI tumour cell line growth inhibition, 48 h
Listing: TGI of selected compounds
TEST READOUT: TGI

>  <COMPOUND>
CCCCCCCC(=O)SCC/C=C/[C@@H]1CC(=O)NCc2cccc(n2)C2=N[C@@](C)(CS2)C(=O)N[C@@H](C(C)C)C(=O)N1

>  <MEAS VALUE>
> 33.3 µM

$$$$
>  <COMPOUND>
COc1cc(/C=C/c2cc(/C=C/c3ccc(O)c(OC)c3)n(C(=O)Nc3ccc(F)cc3)n2)ccc1O

>  <MEAS VALUE>
10 µM

$$$$
>  <COMPOUND>
CC(=O)Oc1c(C)c2c(c3ncccc13)OC(C)C2 (stereo unspecified)

>  <MEAS VALUE>
28.8 µM

$$$$
>  <COMPOUND>
O[C@H]1[C@H]2c3cc4c(cc3CN3CCC(=C[C@@H]1O)[C@H]23)OCO4

>  <MEAS VALUE>
3.57 µM

$$$$
>  <COMPOUND>
C=C1C[C@@H]2CC[C@@]34CC5O[C@H]6C(O[C@H]7CC[C@H](CC(=O)O[C@@H]8[C@@H](C)[C@@H]9O[C@@H]%10C[C@]%11(C[C@@H]%12O[C@]%13(C[C@H](C)[C@@H]%14O[C@@H]%15CC(C(O)CO)O[C@@H]%15C[C@@H]%14O%13)C[C@H](C)[C@@H]%12O%11)O[C@@H]%10C[C@@H]9O[C@H]8CC8O[C@@H](CC[C@@H]1O2)C[C@@H](C)C8(O)CO)O[C@@H]7[C@@H]6O3)[C@H]5O4 (stereo partly specified)

>  <MEAS VALUE>
> 1 µM

$$$$
>  <COMPOUND>
CN1CCc2cc3c(c4c2C1C(O)c1ccccc1-4)OCO3 (stereo unspecified)

>  <MEAS VALUE>
27.7 µM

$$$$
